- System: NCI/ADR-RES
- Experiment: NCI tumour cell line growth inhibition, 48 h
Calls of active or inactive are those of the source. Cut-off read from the data, not from the text of the source: active = GI50 up to about 1.1 µM and inactive = higher.
Quantity Name: GI50

> print(dat)
                                   molecule  quantity.name       value.reported
1          CO/N=C(\C(=O)Nc1cncs1)c1csc(N)n1           GI50   > 10 µM (inactive)
2  O=C(C/N=C(\CN(c1ccccc1)c1ccccc1)Oc1ccc(Cl)cc1Cl)n1ccnc1           GI50  > 100 µM (inactive)
3  CCCCn1cnnc1NS(=O)(=O)c1cc(C)c(Cl)cc1SCC(=O)O           GI50   > 10 µM (inactive)

Identify measured GI50 obtained with NCI/ADR-RES for COc1ccc2nc3n(c2c1)C(c1c(Cl)cccc1Cl)SC3 (stereo unspecified) .
> 100 µM (inactive)

Identify measured GI50 obtained with NCI/ADR-RES for Clc1ccc2oc(CCC3CCCCC3)nc2c1 .
30.3 µM (inactive)

Identify measured GI50 obtained with NCI/ADR-RES for Cc1ccc(-c2nc(N/N=C/C=C/c3ccccc3)c3ccccc3n2)cc1 .
72.9 µM (inactive)
